Tested on: large crabgrass (Digitaria sanguinalis, DIGSA)
experiment: Post-emerge test, greenhouse herbicide activity screening
Assay type: in vivo
particulars: post-emerge, 250 g ai/ha, 14 days after application, rating scale 0-100
Respond with Y for DIGSA phytotoxicity rating values of 10 and above, N for values below.

Study these solved cases before continuing.
molecule: COc1c(Cl)cc(F)c(-n2c(=O)cc(C(F)(F)F)n(C)c2=O)c1NC(=O)CSC(C)C
tested-on: large crabgrass (Digitaria sanguinalis, DIGSA)
assigned-label: N

molecule: Cn1c(C(F)(F)F)cc(=O)n(-c2ccc(C#N)cc2NC(=O)c2ccc3ccccc3c2)c1=O
tested-on: large crabgrass (Digitaria sanguinalis, DIGSA)
assigned-label: Y

molecule: COc1c(Cl)cc(F)c(-n2c(=O)cc(C(F)(F)F)n(C)c2=O)c1NC(=O)C(C#N)=Cc1ccccc1
tested-on: large crabgrass (Digitaria sanguinalis, DIGSA)
assigned-label: Y

Test whether the molecule COc1c(Cl)cc(F)c(-n2c(=O)cc(C(F)(F)F)n(C)c2=O)c1NC(=O)Cc1ccccc1 records DIGSA phytotoxicity rating of 10 or higher.
N

Test whether the molecule COc1c(Cl)cc(F)c(-n2c(=O)cc(C(F)(F)F)n(C)c2=O)c1NC(=O)CCc1cc(C)ccc1C records DIGSA phytotoxicity rating of 10 or higher.
Y

====

Test system: barnyardgrass (Echinochloa crus-galli, ECHCG)
experiment: Post-emerge test, greenhouse herbicide activity screening
Type: in vivo
particulars: 250 g ai/ha; phytotoxicity rating 0-100 (0 no damage, 100 complete death), 14 days after application
result-type: Post-emerge Herbicidal Activity ECHCG

# example entries with known answers
compound: C#CCOc1c(Cl)cc(F)c(-n2c(=O)cc(C(F)(F)F)n(C)c2=O)c1N [Compound 1-19]
result-type: Post-emerge Herbicidal Activity ECHCG
value-reported: 80
//
compound: Cn1c(C(F)(F)F)cc(=O)n(-c2c(F)cc(Cl)c(OCC#N)c2N)c1=O [Compound 1-18]
result-type: Post-emerge Herbicidal Activity ECHCG
value-reported: 0
//
compound: COc1c(Cl)cc(F)c(-n2c(=O)cc(C(F)(F)F)n(C)c2=O)c1NC(=O)C(F)(F)F [2-10]
result-type: Post-emerge Herbicidal Activity ECHCG
value-reported: 60
//
compound: C=C(C)C(=O)N(C(=O)C(=C)C)c1c(OC)c(Cl)cc(F)c1-n1c(=O)cc(C(F)(F)F)n(C)c1=O [2-6]
result-type: Post-emerge Herbicidal Activity ECHCG
value-reported: 0

Can you share its Post-emerge Herbicidal Activity ECHCG? I mean this compound: COc1c(Cl)cc(F)c(-n2c(=O)cc(C(F)(F)F)n(C)c2=O)c1NC(=O)CC#N [2-14]
0

====

Each record here notes measured Pre-emerge Herbicidal Activity, phytotoxicity rating (0-100), DIGSA.
System: large crabgrass (Digitaria sanguinalis, DIGSA)
experiment: Pre-emerge test, greenhouse herbicide activity screening
Type: in vivo
particulars: 63 g ai/ha; rated 14 days after application; 0 = no damage, 100 = complete death
Write the number on its own, no unit after it.

# example entries with known answers
molecule: COc1c(Cl)cc(F)c(-n2c(=O)cc(C(F)(F)F)n(C)c2=O)c1NC(=O)c1cccnc1 [2-98]
tested-on: large crabgrass (Digitaria sanguinalis, DIGSA)
value-reported: 40

molecule: COc1c(Cl)cc(F)c(-n2c(=O)cc(C(F)(F)F)n(C)c2=O)c1NC(=O)c1ccc(F)cc1F [Compound 2-42]
tested-on: large crabgrass (Digitaria sanguinalis, DIGSA)
value-reported: 100

molecule: COc1c(Cl)cc(F)c(-n2c(=O)cc(C(F)(F)F)n(C)c2=O)c1NC(=O)c1ccc2ccccc2c1 [2-75]
tested-on: large crabgrass (Digitaria sanguinalis, DIGSA)
value-reported: 70

The record that follows has no Pre-emerge Herbicidal Activity, phytotoxicity rating (0-100), DIGSA shown yet.
Provide value of Pre-emerge Herbicidal Activity, phytotoxicity rating (0-100), DIGSA for this record tested with large crabgrass (Digitaria sanguinalis, DIGSA): COc1c(Cl)cc(F)c(-n2c(=O)cc(C(F)(F)F)n(C)c2=O)c1NC(=O)c1cccc2ccccc12 [2-74]
20
